Molecular target: T1, Cynomolgous monkey (cyno) TF-ECD with His Tag (cynomolgus monkey, UniProt P13726 33-251 (human entry))
T1 construct: also called cyno antigen
T1 chain: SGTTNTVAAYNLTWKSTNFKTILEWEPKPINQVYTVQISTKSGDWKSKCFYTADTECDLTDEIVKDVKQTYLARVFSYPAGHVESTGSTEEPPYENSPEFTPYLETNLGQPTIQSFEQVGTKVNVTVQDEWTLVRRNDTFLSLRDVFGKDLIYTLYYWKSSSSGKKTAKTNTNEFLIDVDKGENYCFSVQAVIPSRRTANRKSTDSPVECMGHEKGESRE
Assay: TF-ECD binding ELISA, chemiluminescent
PARAMETER: EC50 (µg/mL)
Enter your answer as a number in µg/mL; do not include the unit.

Illustrative cases are given below, each with its answer.
>>> measured_value("M1, 10H10 mouse-human chimera (antibody, V domains shown, also called H13/L1; parent chimeric antibody) VH: QVHLQQSGAELMKPGASVKISCKASGYTFITYWIEWVKQRPGHGLEWIGDILPGSGSTNYNENFKGKATFTADSSSNTAYMQLSSLTSEDSAVYYCARSGYYGNSGFAYWGQGTLVTVSA VL: DIVMTQSPSSLTVTAGEKVTMSCKSSQSLLSSGNQKNYLTWYQQIPGQPPKLLIYWASTRESGVPDRFTGSGSGTDFTLTINSVQAEDLAVYYCQNDYTYPLTFGAGTKLELK")
0.0173
>>> measured_value("M16 (antibody, V domains shown, complete MAb; FR4 is its own entry; also called H16/L2) VH: QVQLVQSGAEVKKPGASVKVSCKASGYTFITYWIEWVRQAPGQGLEWMGDILPGSGSTNYNENFKGRVTMTRDTSTSTVYMELSSLRSEDTAVYYCARSGYYGNSGFAYWGQGTLVTVSS VL: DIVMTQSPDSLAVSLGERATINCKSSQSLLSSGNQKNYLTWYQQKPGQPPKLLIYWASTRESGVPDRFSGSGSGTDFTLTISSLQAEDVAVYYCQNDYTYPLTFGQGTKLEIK")
0.0234
>>> measured_value("M12 (antibody, V domains shown, complete MAb; FR4 is its own entry; also called H15/L5) VH: EVQLVQSGAEVKKPGESLRISCKGSGYTFITYWIEWVRQMPGKGLEWMGDILPGSGSTNYNENFKGHVTISADKSISTAYLQWSSLKASDTAMYYCARSGYYGNSGFAYWGQGTLVTVSS VL: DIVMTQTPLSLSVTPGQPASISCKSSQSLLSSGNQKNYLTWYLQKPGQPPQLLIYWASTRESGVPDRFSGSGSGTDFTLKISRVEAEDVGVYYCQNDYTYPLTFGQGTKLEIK")
0.0228
>>> measured_value("M19 (antibody, V domains shown, complete MAb; FR4 is its own entry; also called H16/L5) VH: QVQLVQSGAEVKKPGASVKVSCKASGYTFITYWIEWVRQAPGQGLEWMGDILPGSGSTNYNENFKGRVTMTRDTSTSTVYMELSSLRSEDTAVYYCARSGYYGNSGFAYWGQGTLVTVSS VL: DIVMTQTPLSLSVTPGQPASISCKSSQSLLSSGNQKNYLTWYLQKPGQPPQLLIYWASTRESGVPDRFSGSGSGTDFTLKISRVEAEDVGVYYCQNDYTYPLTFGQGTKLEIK")
0.0296

Now for the binder whose EC50 we want.
Data point: M59 (antibody, V domains shown, FR4 is its own entry; also called H22/L3) VH: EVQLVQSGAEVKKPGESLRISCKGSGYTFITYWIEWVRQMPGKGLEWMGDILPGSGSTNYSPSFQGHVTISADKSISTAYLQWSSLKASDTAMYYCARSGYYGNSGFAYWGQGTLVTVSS VL: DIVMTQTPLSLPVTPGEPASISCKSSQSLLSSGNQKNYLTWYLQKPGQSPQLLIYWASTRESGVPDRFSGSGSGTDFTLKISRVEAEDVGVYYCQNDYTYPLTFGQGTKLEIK ; EC50 = 0.0187
